Assign Anti-CD28 Fab signal in the presence of CD28 (phage binding ELISA) to each entry below.
molecular target: T1, Anti-CD28 Fab (SEQ ID NOs: 696, 697); test: phage ELISA; captured anti-CD28 Fab pre-incubated with CD28 antigen as competitor, anti-M13 HRP detection;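 note: crude clonal phage supernatants screened by ELISA, with wells pre-incubated with CD28 antigen in blocking buffer, compared against wells given blocking buffer alone as control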
T1 construct: In the phage ELISA the Fab was biotinylated and captured on neutravidin coated plates
T1 sequence (VH, as listed by the source, chain 1 of 2): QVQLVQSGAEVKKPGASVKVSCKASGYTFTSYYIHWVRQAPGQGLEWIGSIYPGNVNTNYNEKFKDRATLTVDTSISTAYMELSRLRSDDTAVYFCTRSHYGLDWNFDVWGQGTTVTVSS
T1 sequence (VL, as listed by the source, chain 2 of 2): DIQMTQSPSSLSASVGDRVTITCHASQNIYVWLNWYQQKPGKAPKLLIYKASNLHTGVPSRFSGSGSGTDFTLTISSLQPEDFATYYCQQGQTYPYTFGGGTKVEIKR
Give bare numbers.

YCDGHNWEYMEKCL (Clonal phage supernatant; not shown: fused to the pIII filament protein of the bacteriophage) [Phage-1072] ... 0.05
YCDGHDARYMEKCL (Clonal phage supernatant; not shown: fused to the pIII filament protein of the bacteriophage) [Phage-1066] ... 0.06
YCDGLFQLYMMKCL (Clonal phage supernatant; not shown: fused to the pIII filament protein of the bacteriophage) [Phage-1074] ... 0.07
YCSGHLPEYMDKCL (Clonal phage supernatant; not shown: fused to the pIII filament protein of the bacteriophage) [Phage-1069] ... 0.07
YCEGHHPWYVQKCL (Clonal phage supernatant; not shown: fused to the pIII filament protein of the bacteriophage) [Phage-1071] ... 0.07

Field: Anti-CD28 Fab signal in the presence of CD28 (phage binding ELISA). Fill in for each record below.
1. YCDGHSPEHMGKCL (Clonal phage supernatant; not shown: fused to the pIII filament protein of the bacteriophage) [Phage-1065]
2. YCNGHLPEYMSKCI (Clonal phage supernatant; not shown: fused to the pIII filament protein of the bacteriophage) [Phage-1068]
3. YCAGHSAEYMSKCL (Clonal phage supernatant; not shown: fused to the pIII filament protein of the bacteriophage) [Phage-1062]
4. YCDGHSLEYMLKCL (Clonal phage supernatant; not shown: fused to the pIII filament protein of the bacteriophage) [Phage-1070]
5. YCDGHSPEYMQKCL (Clonal phage supernatant; not shown: fused to the pIII filament protein of the bacteriophage) [Phage-1067]

0.09
0.07
0.07
0.07
0.53

State the recorded Anti-CD28 Fab signal in the presence of CD28 (phage binding ELISA) for every item in the following list.
1. YCDGHLMEYKAKCL (Clonal phage supernatant; not shown: fused to the pIII filament protein of the bacteriophage) [Phage-1063]
2. YCEGHSAEYIAKCL (Clonal phage supernatant; not shown: fused to the pIII filament protein of the bacteriophage) [Phage-1064]
3. YCDGHAEQYMSKCL (Clonal phage supernatant; not shown: fused to the pIII filament protein of the bacteriophage) [Phage-1073]

[0.06, 0.09, 0.07]
